- test: Particle size and polydispersity index of nanoparticle compositions (Zetasizer Nano ZS)
- Type: physicochemical
- condition info: Table 20-1; rows without footnote mark
endpoint: Size (nm)
Give bare numbers, in nm.

As a guide, the following entries are already answered.
- chemical string: "CCCCCCCCCCCCN(CCCCCCCCCCCC)CCN(CCO)CCCCCCCC(=O)OCCCCCCCCC"
  recorded measurement: 67.9
- chemical string: "CCCCCCCCCCCCN(CCCCCCCCCCCC)CCN(CCO)CCCCCC"
  recorded measurement: 67.4

Provide reported Size (nm) for each item, in the same order as listed.
1. CCCCCCCCCCCCN(CCCCCCCCCCCC)CCN(CCO)CCCCCCCCC
2. CCCCCCCCCCCCN(CCO)CCN(CCCCCCCCCCCC)CCCCCC(=O)OCCCCCCC
3. CCCCCCCCCN(CCCCCCCCC)CCN(CCO)CCCCCC(=O)OCCCCC
4. CCCCC/C=C\C/C=C\CCCCCCCCN(CCO)CCN(CCCCCCCCCCCC)CCCCCCCCCCCC

RESULT:
1: 71.2; 2: 73.6; 3: 82.5; 4: 71.7
